Test system: Fibroblast
method: Multiplex assay against human fibroblast
Assay type: toxicity, cell-based
stated.conditions: 12 h, 1 µM, compound concentration 1 uM, replicate 1
Field: Population Fragmented Nuclei (%). Provide a value for each of the compounds that follow.
Please respond with the number in % and leave the unit unwritten.

Q) For the compound shown here, CN1CCN2c3ccccc3Cc3ccccc3C2C1.Cl (stereo not drawn) [MIANSERIN HYDROCHLORIDE] , give the reported Population Fragmented Nuclei (%).
A) 28

Q) For the compound shown here, COc1cc(OC2CCN(C(C)=O)CC2)ccc1C(=O)N1CCC(N2C(=O)OCc3ccccc32)CC1 , give the reported Population Fragmented Nuclei (%).
A) 12

Q) For the compound shown here, N[C@](CC1c2ccccc2Oc2ccccc21)(C(=O)O)[C@H]1C[C@@H]1C(=O)O , give the reported Population Fragmented Nuclei (%).
A) 12

Q) For the compound shown here, O=C(Nc1cc(-c2ccccc2)nn1-c1ccccc1F)c1ccc([N+](=O)[O-])cc1 , give the reported Population Fragmented Nuclei (%).
A) 17

Q) For the compound shown here, S=C(NCCCc1c[nH]cn1)NCCCN(Cc1ccc(Cl)c(Cl)c1)c1ccc(Br)cn1 , give the reported Population Fragmented Nuclei (%).
A) 13

Q) For the compound shown here, O=C(NCCNCC(O)COc1ccc(O)cc1)N1CCOCC1.O=C(NCCNCC(O)COc1ccc(O)cc1)N1CCOCC1.O=C(O)/C=C/C(=O)O (stereo not drawn) [XAMOTEROL FUMARATE] , give the reported Population Fragmented Nuclei (%).
A) 15

Q) For the compound shown here, Cc1c(Cc2ccc3ccccc3n2)c2cc(F)ccc2n1CC(=O)O , give the reported Population Fragmented Nuclei (%).
A) 12

Q) For the compound shown here, O=c1ccc2ccc(OCCCCN3CCN(c4cccc5sccc45)CC3)cc2[nH]1 , give the reported Population Fragmented Nuclei (%).
A) 17

----------
Tested on: HEK-293T
method: Multiplex assay against HEK293T
Format: toxicity, cell-based
stated.conditions: human, 24 h, 10 µM, compound concentration 10 uM, replicate 1
Field: Population Fragmented Nuclei (%). Provide a value for each of the compounds that follow.
Please respond with the number in % and leave the unit unwritten.

Q) For the compound shown here, Cc1cc(NC(=O)NCCN2CCC(O)(Cc3ccccc3)CC2)c2ccccc2n1 , give the reported Population Fragmented Nuclei (%).
A) 8

Q) For the compound shown here, CC(C)(C)c1ccc(CSc2cnn(C(C)(C)C)c(=O)c2Cl)cc1 , give the reported Population Fragmented Nuclei (%).
A) 7

Q) For the compound shown here, CN(C)C/C=C/C(=O)Nc1ccc(C(=O)N2CCCC(Nc3ncc(Cl)c(-c4c[nH]c5ccccc45)n3)C2)cc1 (configuration not stated) , give the reported Population Fragmented Nuclei (%).
A) 19

Q) For the compound shown here, COc1cc2nc(N3CCN(C(=O)c4ccco4)CC3)nc(N)c2cc1OC.Cl [PRAZOSIN HYDROCHLORIDE] , give the reported Population Fragmented Nuclei (%).
A) 12

Q) For the compound shown here, CCC(=O)OCC(=O)[C@@]1(OC(=O)CC)[C@@H](C)C[C@H]2[C@@H]3CCC4=CC(=O)C=C[C@]4(C)[C@@]3(Cl)[C@@H](O)C[C@@]21C [BECLOMETHASONE DIPROPIONATE] , give the reported Population Fragmented Nuclei (%).
A) 13

Q) For the compound shown here, COc1cc(C(=O)N2CC[C@@H](O)[C@@H](N)C2)cc2nc(-c3cc4ccccc4n3CC3CC3)n(C)c12.Cl , give the reported Population Fragmented Nuclei (%).
A) 8

Q) For the compound shown here, CCCCCCNC(=O)Nc1ccc(S(=O)(=O)Nc2ccc(CCNC[C@H](O)COc3ccc(O)cc3)cc2)cc1 , give the reported Population Fragmented Nuclei (%).
A) 8

----------
Test system: Fibroblast
method: Multiplex assay against human fibroblast
Type: toxicity, cell-based
stated.conditions: 12 h, 10 µM, compound concentration 10 uM, replicate 1
Population Tubulin-Different-Phenotype (%) under 40% gets class 1, anything at or over 40% gets class 0.

Q) Determine whether this molecule shows Population Tubulin-Different-Phenotype (%) lower than 40% (ties excluded): COC(c1ccccc1)(c1ccccc1)[C@H](Oc1nc(C)cc(C)n1)C(=O)O
A) class 1

Q) Determine whether this molecule shows Population Tubulin-Different-Phenotype (%) lower than 40% (ties excluded): CCn1c(-c2nc3cc(C(=O)N4CCCC(N)C4)ccc3n2C)cc2ccccc21.Cl (stereo not given)
A) class 0

Q) Determine whether this molecule shows Population Tubulin-Different-Phenotype (%) lower than 40% (ties excluded): C[C@H](NC(=O)CNC(=O)c1cccc(Cl)c1)c1ccccc1
A) class 1

Q) Determine whether this molecule shows Population Tubulin-Different-Phenotype (%) lower than 40% (ties excluded): Cc1cc(-c2ccc3c(c2)CC[C@H]3N2CC3(CCN(C(=O)Cc4cn5cc(C)sc5n4)CC3)C2)ncn1
A) class 1

Q) Determine whether this molecule shows Population Tubulin-Different-Phenotype (%) lower than 40% (ties excluded): CCCCC[C@H](O)/C=C/[C@H]1[C@H](O)CC(=O)[C@@H]1CCCCCCC(=O)O
A) class 1

----------
Field: Population Fragmented Nuclei (%). Provide a value for each of the compounds that follow.
Tested on: HEK-293T
method: Multiplex assay against HEK293T
Format: toxicity, cell-based
stated.conditions: human, 12 h, 1 µM, compound concentration 1 uM, replicate 1
Please respond with the number in % and leave the unit unwritten.

Q) Find the measured Population Fragmented Nuclei (%): item CCn1c(-c2nc3cc(C(=O)N4CCCC(N)C4)ccc3n2C)cc2ccccc21.Cl (centres undefined) , target or system HEK-293T.
A) 9

Q) Find the measured Population Fragmented Nuclei (%): item COc1cc(C(=O)N2CC[C@@H](O)[C@@H](N)C2)cc2nc(-c3cc4ccccc4n3CC3CC3)n(C)c12.Cl , target or system HEK-293T.
A) 6

Q) Find the measured Population Fragmented Nuclei (%): item CC(C)(O)C(=O)N1CCN(c2ccc(C(F)(F)F)c(C3=C(c4c[nH]c5ccccc45)C(=O)NC3=O)c2)CC1 , target or system HEK-293T.
A) 4

Q) Find the measured Population Fragmented Nuclei (%): item Cc1c(Cc2ccc3ccccc3n2)c2cc(F)ccc2n1CC(=O)O [TIMAPIPRANT] , target or system HEK-293T.
A) 7

Q) Find the measured Population Fragmented Nuclei (%): item Nc1nc(-c2ccco2)c2cnn(Cc3ccccc3F)c2n1 , target or system HEK-293T.
A) 6

Q) Find the measured Population Fragmented Nuclei (%): item COC(c1ccccc1)(c1ccccc1)[C@H](Oc1nc(C)cc(C)n1)C(=O)O [AMBRISENTAN] , target or system HEK-293T.
A) 7

Q) Find the measured Population Fragmented Nuclei (%): item Cn1cc(C(=O)OCC2CCN(CCNS(C)(=O)=O)CC2)c2ccccc21 , target or system HEK-293T.
A) 5

Q) Find the measured Population Fragmented Nuclei (%): item O=c1ccc2ccc(OCCCCN3CCN(c4cccc5sccc45)CC3)cc2[nH]1 [BREXPIPRAZOLE] , target or system HEK-293T.
A) 6

Q) Find the measured Population Fragmented Nuclei (%): item COc1ccc2[nH]c(I)c(CCNC(C)=O)c2c1 [IODOMELATONIN] , target or system HEK-293T.
A) 4

Q) Find the measured Population Fragmented Nuclei (%): item O=C(NCCNCC(O)COc1ccc(O)cc1)N1CCOCC1.O=C(NCCNCC(O)COc1ccc(O)cc1)N1CCOCC1.O=C(O)/C=C/C(=O)O (centres undefined) [XAMOTEROL FUMARATE] , target or system HEK-293T.
A) 5

Q) Find the measured Population Fragmented Nuclei (%): item Cc1cc(=O)n(C)c2cc(N3C(=O)CC[C@H](NS(=O)(=O)CC(C)C)[C@H]3c3ccc(Cl)cc3)ccc12 , target or system HEK-293T.
A) 7

Q) Find the measured Population Fragmented Nuclei (%): item O=c1nc2[nH]c3ccccc3nc-2c(=O)[nH]1 [ALLOXAZINE] , target or system HEK-293T.
A) 8

Q) Find the measured Population Fragmented Nuclei (%): item CN1CCN2c3ccccc3Cc3ccccc3C2C1.Cl (centres undefined) [MIANSERIN HYDROCHLORIDE] , target or system HEK-293T.
A) 5

Q) Find the measured Population Fragmented Nuclei (%): item CCC(=O)OCC(=O)[C@@]1(OC(=O)CC)[C@@H](C)C[C@H]2[C@@H]3CCC4=CC(=O)C=C[C@]4(C)[C@@]3(Cl)[C@@H](O)C[C@@]21C [BECLOMETHASONE DIPROPIONATE] , target or system HEK-293T.
A) 8

----------
Test system: HEK-293T
method: Multiplex assay against HEK293T
Format: toxicity, cell-based
stated.conditions: human, 24 h, 10 µM, compound concentration 10 uM, replicate 2
Population Fragmented Nuclei (%) under 8% gets Criterion met, anything at or over 8% gets Criterion not met.

Q) Determine whether this molecule shows Population Fragmented Nuclei (%) lower than 8% (ties excluded): CN(C)C(=O)Cn1cc(-c2ccc(-c3nnc4ccccn34)cc2)cn1
A) Criterion not met

Q) Determine whether this molecule shows Population Fragmented Nuclei (%) lower than 8% (ties excluded): Cc1cc(O)c(-c2ccc([C@@H](C)CN(C)C)cc2)c2c1[nH]c(=O)c1sccc12
A) Criterion met

Q) Determine whether this molecule shows Population Fragmented Nuclei (%) lower than 8% (ties excluded): O=C(NCCNCC(O)COc1ccc(O)cc1)N1CCOCC1.O=C(NCCNCC(O)COc1ccc(O)cc1)N1CCOCC1.O=C(O)/C=C/C(=O)O (stereo not drawn) [XAMOTEROL FUMARATE]
A) Criterion met

Q) Determine whether this molecule shows Population Fragmented Nuclei (%) lower than 8% (ties excluded): COc1c(Nc2ccc(S(C)(=O)=O)nc2C)ncnc1OC1CCN(C(=O)OC(C)C)CC1
A) Criterion not met

Q) Determine whether this molecule shows Population Fragmented Nuclei (%) lower than 8% (ties excluded): CCc1nn2c(C)cc(C)nc2c1Cc1ccc(-c2nnc(C3CCNCC3)o2)cc1
A) Criterion not met

Q) Determine whether this molecule shows Population Fragmented Nuclei (%) lower than 8% (ties excluded): Cc1sc2c(c1C)C(c1ccc(Cl)cc1)=N[C@H](CC(=O)OC(C)(C)C)c1nnc(C)n1-2
A) Criterion met

Cited source: ChEMBL document CHEMBL5058577
